Exercise: for every item that follows, state its recorded melting point.

Asked: melting point lookup needed for Cc1c(O)cccc1C(=O)N[C@@H](Cc1ccccc1)[C@H](O)C(=O)N1CSC(C)(C)[C@H]1C(=O)N[C@H](C)c1ccccc1 [Example A21] , thanks.
Given back: 114 to 115 °C

Asked: Entry under review: Cc1c(O)cccc1C(=O)N[C@@H](Cc1ccccc1)[C@H](O)C(=O)N1CSC(C)(C)[C@H]1C(=O)NCc1cccc(OC(F)(F)F)c1 [Example A25] . Reported melting point?
Given back: 102 to 105 °C

Asked: Report melting point for Cc1c(O)cccc1C(=O)N[C@@H](Cc1ccccc1)[C@H](O)C(=O)N1CSC(C)(C)[C@H]1C(=O)N[C@@H](C)c1ccccc1 [Example A20] please.
Given back: 114 to 115 °C

Asked: Dear colleague, I am looking for the recorded melting point of the following molecule: CCCN(C)C(=O)[C@H]1N(C(=O)[C@@H](O)[C@H](Cc2ccccc2)NC(=O)c2cccc(O)c2C)CSC1(C)C [Example A46]
Given back: 108 to 110 °C

Asked: Dear colleague, I am looking for the recorded melting point of the following molecule: CC/C=C\CNC(=O)[C@H]1N(C(=O)[C@@H](O)[C@H](Cc2ccccc2)NC(=O)c2cccc(O)c2C)CSC1(C)C [Example A37]
Given back: 112 to 113 °C

Asked: Which melting point value belongs to CCOc1cccc(CNC(=O)[C@H]2N(C(=O)[C@@H](O)[C@H](Cc3ccccc3)NC(=O)c3cccc(O)c3C)CSC2(C)C)c1 [Example A26] ?
Given back: 105 to 107 °C

Asked: Please report the recorded melting point for Cc1c(O)cccc1C(=O)NC(Cc1ccccc1)C(O)C(=O)N1CSC(C)(C)C1C(=O)NCc1cccc(C(F)(F)F)c1 (stereo not shown) [Example A4] .
Given back: 108 to 110 °C

Asked: For the molecule shown here, Cc1c(O)cccc1C(=O)N[C@@H](Cc1ccccc1)[C@H](O)C(=O)N1CSC(C)(C)[C@H]1C(=O)NCc1ccc(N)cc1 [Example A16] , give the reported melting point.
Given back: 107 to 109 °C

Asked: Requested read-out: melting point. Entry: Cc1ccccc1CNC(=O)[C@H]1N(C(=O)[C@@H](O)[C@H](Cc2ccccc2)NC(=O)[C@@H]2CCCO2)CSC1(C)C [Example B7]
Given back: 82 to 84 °C

Asked: I have this molecule here, Cc1ccccc1CNC(=O)[C@H]1N(C(=O)[C@@H](O)[C@H](Cc2ccccc2)NC(=O)c2ccsc2)CSC1(C)C [Example B6] , and I need its recorded melting point.
Given back: 98 to 100 °C

Asked: Suppose we examine the molecule Cc1ccccc1CNC(=O)[C@H]1N(C(=O)[C@@H](O)[C@H](Cc2ccccc2)NC(=O)c2cccs2)CSC1(C)C [Example B5] ; what melting point value has been reported?
Given back: 98 to 101 °C

Asked: Which melting point is reported for this molecule? Cc1ccccc1CNC(=O)[C@H]1N(C(=O)[C@@H](O)[C@H](Cc2ccccc2)NC(=O)c2ccno2)CSC1(C)C [Example B2]
Given back: 82 to 84 °C

Asked: Using the record for Cc1c(O)cccc1C(=O)N[C@@H](Cc1ccccc1)[C@H](O)C(=O)N1CSC(C)(C)[C@H]1C(=O)NCc1cccc(N(C)C)c1 [Example A39] , report its melting point.
Given back: 105 to 106 °C

Asked: Any idea what melting point was measured for C=CCNC(=O)[C@H]1N(C(=O)[C@@H](O)[C@H](Cc2ccccc2)NC(=O)c2cccc(O)c2C)CSC1(C)C ?
Given back: 173 to 175 °C

Asked: Field request: melting point | item: COc1ccccc1CNC(=O)[C@H]1N(C(=O)C(O)C(Cc2ccccc2)NC(=O)c2cccc(O)c2C)CSC1(C)C (stereo partly shown) [Example A3]
Given back: 123 to 125 °C

Asked: Quick one: melting point for CC/C=C/CNC(=O)[C@H]1N(C(=O)[C@@H](O)[C@H](Cc2ccccc2)NC(=O)c2cccc(O)c2C)CSC1(C)C [Example A36] ?
Given back: 113 to 115 °C
